# credit: patent US20250206841A1

Target: T1, human Trop-2 expressed on cell surface (human, UniProt P09758 27-323)
T1 sequence (looked up): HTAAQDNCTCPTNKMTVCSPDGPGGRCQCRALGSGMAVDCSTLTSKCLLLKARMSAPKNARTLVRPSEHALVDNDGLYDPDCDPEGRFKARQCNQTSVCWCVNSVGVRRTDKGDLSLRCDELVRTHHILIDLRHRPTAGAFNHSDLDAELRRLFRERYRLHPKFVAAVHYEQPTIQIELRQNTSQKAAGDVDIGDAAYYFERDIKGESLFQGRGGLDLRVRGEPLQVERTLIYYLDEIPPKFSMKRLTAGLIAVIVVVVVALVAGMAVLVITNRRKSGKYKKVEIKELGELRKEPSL
Assay: cell-based or functional assay
Entries annotated with measured Internalization %, MCF-7, 0.25 µg/ml, 1 h
Answer format: numeric, % implied, no suffix.

Please review the entries below; each comes with its answer.
1) 10A9-2 (antibody, V domains shown) VH: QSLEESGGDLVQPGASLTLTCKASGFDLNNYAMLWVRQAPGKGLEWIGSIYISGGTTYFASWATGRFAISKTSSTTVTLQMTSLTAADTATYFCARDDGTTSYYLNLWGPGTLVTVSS VL: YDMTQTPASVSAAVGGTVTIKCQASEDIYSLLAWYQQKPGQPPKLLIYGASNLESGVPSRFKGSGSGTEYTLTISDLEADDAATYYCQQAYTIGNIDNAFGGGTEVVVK: 28
2) 62E3 (antibody, V domains shown, Rabbit-derived clone; LEM construct: VH + rabbit IgG CH1 + human IgG1 CH2-CH3) VH: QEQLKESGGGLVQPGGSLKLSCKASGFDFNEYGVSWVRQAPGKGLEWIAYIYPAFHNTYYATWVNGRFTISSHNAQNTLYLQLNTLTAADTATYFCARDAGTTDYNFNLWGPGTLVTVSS VL: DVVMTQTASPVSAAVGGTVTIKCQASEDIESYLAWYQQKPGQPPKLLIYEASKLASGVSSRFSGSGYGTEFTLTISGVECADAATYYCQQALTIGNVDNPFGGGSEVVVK: 23
3) 10A9 (antibody, V domains shown, Rabbit-derived clone; LEM construct: VH + rabbit IgG CH1 + human IgG1 CH2-CH3) VH: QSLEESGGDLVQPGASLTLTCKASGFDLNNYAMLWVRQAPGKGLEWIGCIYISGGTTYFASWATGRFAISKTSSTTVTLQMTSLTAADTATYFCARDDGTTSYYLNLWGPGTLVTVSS VL: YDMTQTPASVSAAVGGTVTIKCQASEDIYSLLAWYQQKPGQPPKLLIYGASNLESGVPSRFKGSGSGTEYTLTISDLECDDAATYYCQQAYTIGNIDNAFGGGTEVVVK: 15

Next binder, Internalization %, MCF-7, 0.25 µg/ml, 1 h to be filled in.
Exercise: Quick one: Internalization %, MCF-7, 0.25 µg/ml, 1 h for 5D4 (antibody, V domains shown, Rabbit-derived clone; LEM construct: VH + rabbit IgG CH1 + human IgG1 CH2-CH3) VH: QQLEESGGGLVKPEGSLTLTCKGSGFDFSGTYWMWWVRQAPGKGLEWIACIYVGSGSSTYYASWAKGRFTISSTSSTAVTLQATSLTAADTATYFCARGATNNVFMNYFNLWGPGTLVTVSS VL: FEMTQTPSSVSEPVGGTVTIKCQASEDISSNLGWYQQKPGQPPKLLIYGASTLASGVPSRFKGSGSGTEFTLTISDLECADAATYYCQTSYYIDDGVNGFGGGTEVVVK ?
Key: 44
